Origin of values: paper PMC9482650

target: T1, ARHGEF11, O15085
T1 sequence (O15085 42-136, limits assumed, looked up): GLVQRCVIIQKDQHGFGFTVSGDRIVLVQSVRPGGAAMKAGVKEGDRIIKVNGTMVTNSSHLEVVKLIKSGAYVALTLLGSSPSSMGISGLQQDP
measurement_description: holdup assay
Set-up: key: below the threshold = too weak to quantify, mostly under pKd 3.1 to 4
condition_parameters: plain residues with an end cap or a label only (N-terminal biotin on a linker: ado-ado)
Provide the recorded pKd for the entries that follow.
Numbers only.

Reference set (4 entries):
{"columns": ["binder", "value_measured"],
 "data": [
  ["EDLTKNHDEL [RCN1, Q15293]", 3.79],
  ["EEPEERHTEL [CES2, O00748]", 4.64],
  ["QKNKDKEYYV [NRXN3_rs746444206, Q9Y4C0]", 3.95],
  ["TETASVCTKV [SLC23A1, Q9UHI7]", 4.24]
]}

Task: Form field: reported pKd of FVHPILQSAV [PRKCA, P17252]
Output: 4.17
